Origin of measurements: ChEMBL document CHEMBL1142349

Each entry below carries its reported Activity.
System: Ehrlich
run-description: Cytotoxicity against mouse Ehrlich Ascites carcinoma assessed as non viable cells at 100 umol/mL after 2 hrs by trypan blue exclusion assay
Type: functional

Example entries and their recorded answers appear below.
• N#CCc1nc2c3c(-c4ccccc4)cn(-c4ccc(S(N)(=O)=O)cc4)c3ncn2n1 = 80%
• NS(=O)(=O)c1ccc(-n2cc(-c3ccccc3)c3c2ncn2nc(S)nc32)cc1 = 80%

Problem: Consider the compound CC(=O)NS(=O)(=O)c1ccc(-n2cc(-c3ccccc3)c3c2ncn2nc(C)nc32)cc1 . State its measured Activity.
Result: 80%

----------
Listed compounds paired with reported Activity
System: Ehrlich
run-description: Cytotoxicity against mouse Ehrlich Ascites carcinoma assessed as non viable cells at 75 umol/mL after 2 hrs by trypan blue exclusion assay
Assay type: functional
Quick note: number first, unit second.

As a guide, the following entries are already answered.
* N#CCc1nc2c3c(-c4ccccc4)cn(-c4ccc(S(N)(=O)=O)cc4)c3ncn2n1 | 15%
* COc1cccc2c1C(=O)c1c(O)c3c(c(O)c1C2=O)C[C@@](O)(C(=O)CO)C[C@@H]3O[C@H]1C[C@H](N)[C@H](O)[C@H](C)O1 | 64%
* NS(=O)(=O)c1ccc(-n2cc(-c3ccccc3)c3c2ncn2nc(S)nc32)cc1 | 20%

Problem: State, in one line, measured Activity of NS(=O)(=O)c1ccc(-n2cc(-c3ccccc3)c3c2ncn2ncnc32)cc1
Result: 15%

Problem: Complete the entry with Activity for CC(=O)NS(=O)(=O)c1ccc(-n2cc(-c3ccccc3)c3c2ncn2nc(C)nc32)cc1
Result: 20%
